system: CbCln3 Δex7/8/Δex7/8 GFP-LC3 cerebellar neuronal cells; experiment: fraction of GFP-LC3-positive cells (≥5 vesicles/cell); higher = more autophagosome accumulation
The full ranking holds about 1,700 compounds; the median of “fraction of GFP-LC3-positive cells (≥5 vesicles/cell)” is about 0.43, and the highest 2% start at about 0.81. The list comes from a sample in which the highest values are over-represented; it also holds close analogues and randomly drawn compounds.
Rule: fraction of GFP-LC3-positive cells under 0.5 gives n, otherwise y.

Here's what some known entries look like.
INSERT INTO results (compound, label) VALUES
  ('CCCCCC(=O)/C=C/[C@H]1[C@H](O)CC(=O)[C@@H]1C/C=C\CCCC(=O)O [15-Keto-prostaglandin E2]', 'n'),
  ('COc1cc(-c2ccc(=O)[nH]n2)ccc1OC(F)F', 'n'),
  ('CC(=O)N[C@@H](CC(C)C)C(=O)O', 'n');

hey, is fraction of GFP-LC3-positive cells for this one >= 0.5? "CCCC[C@@H](C)/C=C(C)/C=C(\C)C(=O)NC1=C[C@@](O)(/C=C/C=C/C=C/C(=O)NC2=C(O)CCC2=O)[C@@H]2O[C@@H]2C1=O"
y

hey, is fraction of GFP-LC3-positive cells for this one >= 0.5? COCCOC(=O)C1=C(C)NC(C)=C(C(=O)OC(C)C)C1c1cccc([N+](=O)[O-])c1 (stereo not drawn)
n

hey, is fraction of GFP-LC3-positive cells for this one >= 0.5? "O=C(O)/C=C/c1ccc(O)c(O)c1"
n

hey, is fraction of GFP-LC3-positive cells for this one >= 0.5? COc1ccc2cc([C@@H](C)C(=O)[O-])ccc2c1.[Na+] [(R) -Naproxen sodium salt]
n
